- Assay Summary: Bioavailability in Beagle dog at 3 mg/kg, po and 0.3 mg/kg, iv
- Assay type: ADME, organism-based, Canis lupus familiaris
- Conditions Used: in vivo
Value Type: bioavailability
Answer with the number, then the unit.

**Q:** bioavailability lookup needed for CCC/N=C1\S/C(=C\c2ccc(OC[C@@H](O)CO)c(Cl)c2)C(=O)N1c1ccccc1C , thanks.
**A:** 69%

----------
- Assay Target: Sphingosine 1-phosphate receptor 3 (Homo sapiens)
- Sequence (Q99500 whole entry): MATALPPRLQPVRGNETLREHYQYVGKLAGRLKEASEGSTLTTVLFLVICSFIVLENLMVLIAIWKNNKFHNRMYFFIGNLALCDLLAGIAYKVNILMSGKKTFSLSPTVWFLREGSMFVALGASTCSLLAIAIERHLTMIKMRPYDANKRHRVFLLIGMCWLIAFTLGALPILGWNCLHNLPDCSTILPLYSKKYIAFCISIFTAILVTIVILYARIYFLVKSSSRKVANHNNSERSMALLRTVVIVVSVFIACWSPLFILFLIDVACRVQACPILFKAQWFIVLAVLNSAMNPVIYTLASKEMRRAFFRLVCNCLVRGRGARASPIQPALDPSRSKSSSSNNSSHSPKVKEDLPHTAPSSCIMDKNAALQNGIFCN
- Assay Summary: Agonist activity at human recombinant S1P3 receptor expressed in CHO cells by GTPgammaS binding assay
- Format: functional, cell-based
Would you mind telling me the reported log10(EC50) of each entry?
All values: base-10 log of EC50 in nM.

**Q:** log10(EC50) lookup needed for COc1ccc(/C=C2\S/C(=N\C(C)C)N(c3ccccc3)C2=O)cc1O , thanks.
**A:** 2.33

**Q:** log10(EC50) lookup needed for CCCC/N=C1\S/C(=C\c2ccc(O)c(Cl)c2)C(=O)N1c1ccccc1 , thanks.
**A:** 2.42

**Q:** log10(EC50) lookup needed for CC(C)/N=C1\S/C(=C\c2ccc(CCCO)cc2)C(=O)N1c1ccccc1 , thanks.
**A:** 1.73

**Q:** log10(EC50) lookup needed for O=C1/C(=C/c2ccc(O)c(Cl)c2)S/C(=N\C2CC2)N1c1ccccc1 , thanks.
**A:** 2.06

**Q:** log10(EC50) lookup needed for COc1ccc(N2C(=O)/C(=C/c3ccc(O)c(Cl)c3)S/C2=N\C(C)C)c(OC)c1 , thanks.
**A:** 2.72

**Q:** log10(EC50) lookup needed for C=CCN1C(=O)/C(=C/c2ccc(O)c(Cl)c2)S/C1=N\C(C)C , thanks.
**A:** 2.91

**Q:** log10(EC50) lookup needed for COc1cc(/C=C2\S/C(=N\N(C)C)N(c3ccccc3)C2=O)ccc1O , thanks.
**A:** 3.00

**Q:** log10(EC50) lookup needed for Cc1cccc(N2C(=O)/C(=C/c3ccc(O)c(Cl)c3)S/C2=N\C(C)C)c1C , thanks.
**A:** 2.54

**Q:** log10(EC50) lookup needed for CC(C)/N=C1\S/C(=C\c2ccc(N(C)C)cc2)C(=O)N1c1ccccc1 , thanks.
**A:** 2.22

**Q:** log10(EC50) lookup needed for CC(C)/N=C1\S/C(=C\c2ccc(OCC(O)CO)cc2)C(=O)N1c1ccccc1 (racemic) , thanks.
**A:** 2.38

Just for reference, ChEMBL document CHEMBL1157829 is where these values come from.
